Value source: patent US12625141B2

Assay: Fluorescence emission in glycerol versus methanol (viscosity response)
Type: physicochemical
Settings: 1×10^-5 M, maximum excitation wavelength of each fluorescent dye
observable: Emission (nm)
Numbers only, in nm.

Would you please look over these solved cases?
molecule | observable | reported value
CN(C)c1cc2sc3cc(/C=C(\C#N)c4ccc([S+](C)[O-])cc4)sc3c2s1 (centres unmarked) | Emission (nm) | 660
CN(C)CCN(C)c1cnc(/C=C(\C#N)c2ccc(C#N)cc2)cn1 | Emission (nm) | 485
CN(CCO)c1cc2c(s1)-c1sc(/C=C(\C#N)c3ccc(C(N)=O)cc3)cc1C2(C)C | Emission (nm) | 689

Go through the items and report each one's Emission (nm).
1. CN(C)c1ccc(-c2ccc(/C=C(\C#N)c3ccc(C(=O)O)cc3)s2)s1
2. CN(C)c1cc2sc(/C=C(\C#N)c3ccc(C#N)cc3)cc2s1

Result string:
676
620

###

So I've got a bunch of molecules here, and I need their Ex/nm values.
Tested on: F30-8Pepper-5 RNA aptamer
Assay: Binding to RNA aptamer, optical properties after binding
Conditions: after binding to RNA aptamer
One number for each entry, in nm.

# annotated cases, reported Ex/nm shown
structure string | measured target | quantity unit | Ex/nm
CN(CCO)c1ccc(/C=C(\C#N)c2ccc(C#N)cc2)cc1 | F30-8Pepper-5 RNA aptamer | nm | 485
CN(CCO)c1cnc(/C=C(\C#N)c2ccc(C#N)cc2)cn1 | F30-8Pepper-5 RNA aptamer | nm | 435

State the recorded Ex/nm for every item in the following list.
1. CN(CCO)c1cc2sc(/C=C(\C#N)c3ccc(C#N)cc3)cc2s1
2. CN(C)CCN(C)c1ccc(/C=C(\C#N)c2ccc(C#N)cc2)cc1
3. CN(C)CCN(C)c1cnc(/C=C(\C#N)c2ccc(C#N)cc2)cn1
4. CN(CCO)c1ccc2cc(/C=C(\C#N)c3ccc(C#N)cc3)sc2c1

Result string:
1. 577
2. 458
3. 443
4. 515

###

Test system: F30-8Pepper-5 RNA aptamer
Test: Binding to RNA aptamer, optical properties after binding
Details: fluorescence activation after binding to RNA aptamer
observable: Activation Multiple
One number for each entry.

structure string | Activation Multiple
CN(C)CCN(C)c1cnc(/C=C(\C#N)c2ccc(C#N)cc2)cn1 | 691

List Activation Multiple for every entry below, keeping the order given.
1. CN(C)CCN(C)c1ccc(/C=C(\C#N)c2ccc(C#N)cc2)cc1
2. CN(CCO)c1ccc2cc(/C=C(\C#N)c3ccc(C#N)cc3)sc2c1
3. CN(CCO)c1cnc(/C=C(\C#N)c2ccc(C#N)cc2)cn1

Result string:
4748
708
16601

Please give Activation Multiple, item by item, for the list that follows.
1. CN(CCO)c1ccc(/C=C(\C#N)c2ccc(C#N)cc2)cc1
2. CN(CCO)c1cc2sc(/C=C(\C#N)c3ccc(C#N)cc3)cc2s1

Result string:
3595
12600

###

Assay: Fluorescence emission in glycerol versus methanol (viscosity response)
Assay type: physicochemical
Settings: 1×10^-5 M in glycerol and methanol, maximum excitation wavelength of each dye
Label scheme, based on Glycerol/methanol fluorescence intensity ratio: 1 = under 700, 2 = from 700 up to 900, 3 = 900 and over

Below, 8 compounds whose answers are already recorded.
compound | qualitative label
CCN(CC)c1ccc(-c2ccc(/C=C(\C#N)c3ccc(C#N)cc3)s2)s1 [III-25] | 2
CN(CCO)c1ccc(/C=C(\C#N)c2ccc(C#N)cn2)cc1 [III-13] | 2
CN(CCO)c1ccc(/C=C(\C#N)c2ccc(C#N)cc2)cc1 [III-3] | 3
CN(C)c1ccc(/C=C(\C#N)c2ccc(C#N)cc2)cc1 [III-1] | 3
CN(CCO)c1cc2sc(/C=C(\C#N)c3ccc(C#N)cc3)cc2s1 [III-21] | 1
CN(CCO)c1ccc(/C=C(\C#N)c2ccc(C#N)cc2)cn1 [III-8] | 3
CN(C)c1ccc(-c2ccc(/C=C(\C#N)c3ccc(C#N)cc3)cc2)cc1 [III-22] | 3
N#C/C(=C\c1cc2c3c(c1)CCCN3CCC2)c1ccc(C#N)cc1 [III-15] | 3

Query string: For CN(CCO)c1ccc2cc(/C=C(\C#N)c3ccc(C#N)cc3)sc2c1 [III-18] , which Glycerol/methanol fluorescence intensity ratio bin applies?
Result string: 3

Query string: Which of the defined bands does the recorded Glycerol/methanol fluorescence intensity ratio of CN1CCc2cc(/C=C(\C#N)c3ccc(C#N)cc3)ccc21 [III-16] sit within?
Result string: 1

###

Tested on: F30-8Pepper-5 RNA aptamer
Test: Binding to RNA aptamer, optical properties after binding
Conditions: after binding to RNA aptamer
observable: Em/nm (nm)
Answers are plain numbers, in nm.

Here are 5 compounds together with their reported answers.
structure string | observable | reported value
CN(CCO)c1ccc(/C=C(\C#N)c2ccc(C#N)cc2)cc1 | Em/nm | 530
CN(C)CCN(C)c1cnc(/C=C(\C#N)c2ccc(C#N)cc2)cn1 | Em/nm | 485
CN(CCO)c1cnc(/C=C(\C#N)c2ccc(C#N)cc2)cn1 | Em/nm | 497
CN(CCO)c1ccc2cc(/C=C(\C#N)c3ccc(C#N)cc3)sc2c1 | Em/nm | 599
CN(CCO)c1cc2sc(/C=C(\C#N)c3ccc(C#N)cc3)cc2s1 | Em/nm | 620

Now consider the entry below.
Query string: Look up Em/nm for this compound: CN(C)CCN(C)c1ccc(/C=C(\C#N)c2ccc(C#N)cc2)cc1
Result string: 514

###

Experiment: Fluorescence emission at different viscosity conditions in diethanol-glycerol mixed solution
Format: physicochemical
Conditions: 1×10^−5 M, excitation at 480 nm
observable: Sensitivity of fluorescence intensity to viscosity

structure string | reported value
CN(CCO)c1cc2c(s1)-c1sc(/C=C(\C#N)c3ccc(C(N)=O)cc3)cc1C2(C)C | sensitive to viscosity
CN(CCO)c1ccc(/C=C(\C#N)c2ccc(C#N)cc2)cc1 | sensitive to viscosity
CN(C)CCN(C)c1ccc(/C=C(\C#N)c2ccc(C#N)cc2)cc1 | sensitive to viscosity
CN(CCO)c1cc2sc3cc(/C=C(\C#N)c4ccc(C#N)cc4)sc3c2s1 | sensitive to viscosity

###

Target: F30-8Pepper-5 RNA aptamer
Experiment: Binding to RNA aptamer, optical properties after binding
Conditions: binding to RNA aptamer
What Kd was measured for each of the following?

Solved entries:
molecule | Kd
CN(CCO)c1ccc(/C=C(\C#N)c2ccc(C#N)cc2)cc1 [III-3] | 3.5 nM
CN(CCO)c1cc2sc(/C=C(\C#N)c3ccc(C#N)cc3)cc2s1 [III-21] | 6.1 nM
CN(CCO)c1cnc(/C=C(\C#N)c2ccc(C#N)cc2)cn1 [III-6] | 6.7 nM
CN(C)CCN(C)c1cnc(/C=C(\C#N)c2ccc(C#N)cc2)cn1 [III-7] | 8 nM

Next molecule, Kd to be filled in.
Query string: What value of Kd has been reported for the following molecule? CN(CCO)c1ccc2cc(/C=C(\C#N)c3ccc(C#N)cc3)sc2c1 [III-18]
Result string: 18 nM

###

Tested on: F30-8Pepper-5 RNA aptamer
Assay: Binding to RNA aptamer, optical properties after binding
Conditions: after binding to RNA aptamer
For each of the compounds below, state its ε.
Answer format: number, then unit.

Example entries begin here.
structure string | observable | reported value
CN(C)CCN(C)c1ccc(/C=C(\C#N)c2ccc(C#N)cc2)cc1 | ε | 44100 M⁻¹ cm⁻¹
CN(CCO)c1ccc2cc(/C=C(\C#N)c3ccc(C#N)cc3)sc2c1 | ε | 54400 M⁻¹ cm⁻¹
CN(CCO)c1cc2sc(/C=C(\C#N)c3ccc(C#N)cc3)cc2s1 | ε | 10000 M⁻¹ cm⁻¹
CN(CCO)c1cnc(/C=C(\C#N)c2ccc(C#N)cc2)cn1 | ε | 54700 M⁻¹ cm⁻¹
CN(CCO)c1ccc(/C=C(\C#N)c2ccc(C#N)cc2)cc1 | ε | 65300 M⁻¹ cm⁻¹

Field: next compound
Query string: Kindly state the measured ε obtained for CN(C)CCN(C)c1cnc(/C=C(\C#N)c2ccc(C#N)cc2)cn1 with F30-8Pepper-5 RNA aptamer.
Result string: 49100 M⁻¹ cm⁻¹

###

Experiment: Fluorescence emission in glycerol versus methanol (viscosity response)
Format: physicochemical
Conditions: 1×10^-5 M in glycerol and methanol, maximum excitation wavelength of each dye
Record form. Attribute: Glycerol/methanol fluorescence intensity ratio. Fill in for each entry.

structure string | reported value
CN(C)c1ccc(-c2ccc(/C=C(\C#N)c3ccc(C#N)cc3)s2)cc1 | 687
CCOC(=O)c1ccc(/C(C#N)=C/c2cc3sc4cc(N(C)C)sc4c3s2)cc1 | 684
CN(C)CCN(C)c1ccc(/C=C(\C#N)c2ccc(C#N)cc2)cc1 | 892
CN(CCO)c1ccc(/C=C(\C#N)c2cnc(C#N)cn2)cc1 | 785
CN(CCO)c1ncc(/C=C(\C#N)c2ccc(C#N)cc2)cn1 | 869

Look up Glycerol/methanol fluorescence intensity ratio for the entries below, preserving their order.
1. CN(C)c1ccc(-c2ccc(/C=C(\C#N)c3ccc(C(=O)O)cc3)s2)s1
2. CN(CCO)c1cc2sc3cc(/C=C(\C#N)c4ccc(C#N)cc4)sc3c2s1
3. COCCOCCOCCOCCOCCN(C)c1cc2c(s1)-c1sc(/C=C(\C#N)c3ccc(C#N)cc3)cc1C2(C)C
4. CCN(CC)c1cc2sc(/C=C(\C#N)c3ccc(C#N)cc3)cc2s1

Result string:
[368, 559, 710, 836]
